Please provide measured Growth inhibition rate, Pre-emergence treatment, Abutilon theophrasti Medic. for the entries that follow.
test system: Abutilon theophrasti Medic.; assay: Bioassay of herbicidal activity in greenhouse (further screening); format: in vivo; details: pre-emergence; dose 15 g a.i./hm^2
Value expressed in %; do not type the unit.

Challenge: Any idea what Growth inhibition rate, Pre-emergence treatment, Abutilon theophrasti Medic. came out for CC(C)C(=O)OCC1(C)CC(c2cc(-n3c(=O)cc(C(F)(F)F)n(C)c3=O)c(F)cc2Cl)=NO1 (centres unmarked) [Compound 46] on Abutilon theophrasti Medic.?
Response given: 100

Challenge: Same lookup for Cn1c(C(F)(F)F)cc(=O)n(-c2cc(C3=NOC(C)(COC(=O)COc4ccc(Cl)cc4Cl)C3)c(Cl)cc2F)c1=O (centres unmarked) [Compound 83] , please.
Response given: 30

Challenge: Same lookup for CC(=O)OCC1(C)CC(c2cc(-n3c(=O)cc(C(F)(F)F)n(C)c3=O)c(F)cc2Cl)=NO1 (centres unmarked) [Compound 43] , please.
Response given: 100

Challenge: Same lookup for Cn1c(C(F)(F)F)cc(=O)n(-c2cc(C3=NOC(C)(COS(C)(=O)=O)C3)c(Cl)cc2F)c1=O (centres unmarked) [Compound 88] , please.
Response given: 100

Challenge: Same lookup for Cn1c(C(F)(F)F)cc(=O)n(-c2cc(C3=NOC(C)(COC(=O)C4CC4)C3)c(Cl)cc2F)c1=O (centres unmarked) [Compound 45] , please.
Response given: 100

* * *

test system: Echinochloa crus-galli (L.) Beauv.; test: Bioassay of herbicidal activity in greenhouse (further screening); format: in vivo; conditions: post-emergence; dose 7.5 g a.i./hm^2
Param threshold (20%) applies to Growth inhibition rate, Post-emergence treatment, Echinochloa crus-galli (L.) Beauv.; output Met when value >= threshold, Not met when value < threshold.

Challenge: Does the reported Growth inhibition rate, Post-emergence treatment, Echinochloa crus-galli (L.) Beauv. for CCOC(=O)C1(C)CC(c2cc(-n3c(=O)cc(C(F)(F)F)n(C)c3=O)c(F)cc2Cl)=NO1 (stereo not shown) [Compound 6] fall at or above the 20% mark?
Response given: Met

Challenge: Same lookup for COC(=O)C1(C)CC(c2cc(-n3c(=O)cc(C(F)(F)F)n(C)c3=O)c(F)cc2Cl)=NO1 (stereo not shown) [Compound 5] , please.
Response given: Met

Challenge: Same lookup for Cn1c(C(F)(F)F)cc(=O)n(-c2cc(C3=NOC(C)(COS(C)(=O)=O)C3)c(Cl)cc2F)c1=O (stereo not shown) [Compound 88] , please.
Response given: Not met

Challenge: Same lookup for CC(=O)OCC1(C)CC(c2cc(-n3c(=O)cc(C(F)(F)F)n(C)c3=O)c(F)cc2Cl)=NO1 (stereo not shown) [Compound 43] , please.
Response given: Not met

Challenge: Same lookup for Cn1c(C(F)(F)F)cc(=O)n(-c2cc(C3=NOC(C)(C(=O)OCC4CCCO4)C3)c(Cl)cc2F)c1=O (stereo not shown) [Compound 398] , please.
Response given: Met

Challenge: Same lookup for COCCOC(=O)C1(C)CC(c2cc(-n3c(=O)cc(C(F)(F)F)n(C)c3=O)c(F)cc2Cl)=NO1 (stereo not shown) [Compound 16] , please.
Response given: Met

Challenge: Same lookup for CCCOC(=O)C1(C)CC(c2cc(-n3c(=O)cc(C(F)(F)F)n(C)c3=O)c(F)cc2Cl)=NO1 (stereo not shown) [Compound 7] , please.
Response given: Met

Challenge: Same lookup for CCOCCOC(=O)C1(C)CC(c2cc(-n3c(=O)cc(C(F)(F)F)n(C)c3=O)c(F)cc2Cl)=NO1 (stereo not shown) [Compound 15] , please.
Response given: Met

Challenge: Same lookup for CC(C)COC(=O)C1(C)CC(c2cc(-n3c(=O)cc(C(F)(F)F)n(C)c3=O)c(F)cc2Cl)=NO1 (stereo not shown) [Compound 397] , please.
Response given: Met

Challenge: Same lookup for CCCCOC(=O)C1(C)CC(c2cc(-n3c(=O)cc(C(F)(F)F)n(C)c3=O)c(F)cc2Cl)=NO1 (stereo not shown) [Compound 8] , please.
Response given: Met

Challenge: Same lookup for CC(=O)OCCOC(=O)C1(C)CC(c2cc(-n3c(=O)cc(C(F)(F)F)n(C)c3=O)c(F)cc2Cl)=NO1 (stereo not shown) [Compound 17] , please.
Response given: Met

Challenge: Same lookup for CC(C)OC(=O)C1(C)CC(c2cc(-n3c(=O)cc(C(F)(F)F)n(C)c3=O)c(F)cc2Cl)=NO1 (stereo not shown) [Compound 10] , please.
Response given: Met

Challenge: Same lookup for Cn1c(C(F)(F)F)cc(=O)n(-c2cc(C3=NOC(C)(COC(=O)COc4ccc(Cl)cc4Cl)C3)c(Cl)cc2F)c1=O (stereo not shown) [Compound 83] , please.
Response given: Met

Challenge: Same lookup for Cn1c(C(F)(F)F)cc(=O)n(-c2cc(C3=NOC(C)(COC(=O)C4CC4)C3)c(Cl)cc2F)c1=O (stereo not shown) [Compound 45] , please.
Response given: Not met
